Molecular target: T1, cynomolgus macaque (Macaca fascicularis) CD39 (Macaca fascicularis, UniProt P49961 7-510 (human entry))
T1 construct: On engineered CHO cells and on primary cyno B cells and monocytes; also called cyno CD39; cCD39
T1 chain: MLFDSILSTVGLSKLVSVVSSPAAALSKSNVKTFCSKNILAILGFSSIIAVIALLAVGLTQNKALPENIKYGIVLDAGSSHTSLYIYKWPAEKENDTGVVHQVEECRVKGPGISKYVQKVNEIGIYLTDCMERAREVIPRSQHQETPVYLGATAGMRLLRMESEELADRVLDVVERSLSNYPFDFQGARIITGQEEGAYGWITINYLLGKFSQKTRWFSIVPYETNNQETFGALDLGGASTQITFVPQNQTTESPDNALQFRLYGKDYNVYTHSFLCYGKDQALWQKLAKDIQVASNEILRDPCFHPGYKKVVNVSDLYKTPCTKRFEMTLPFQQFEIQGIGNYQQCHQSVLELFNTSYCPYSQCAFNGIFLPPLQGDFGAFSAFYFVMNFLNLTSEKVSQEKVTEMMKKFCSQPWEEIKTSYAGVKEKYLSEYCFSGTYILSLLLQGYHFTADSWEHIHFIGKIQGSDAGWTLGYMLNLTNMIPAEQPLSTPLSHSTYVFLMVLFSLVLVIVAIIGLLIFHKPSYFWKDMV
Test: flow cytometry, 100 nM IgG, MFI on CHO-cCD39 / MFI on parental CHO;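 also: antibodies bound to the cells for 30 min in PBS, then bound IgG was revealed with a fluorescent goat anti-human IgG secondary antibody, 20 min on ice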
OBSERVATION TYPE: Cell Binding (FOB) (fold over background)
Provide the reading as a plain figure in fold over background.

31431 (antibody, V domains shown) VH: QVQLVQSGAEVKKPGASVKVSCKASGYTFTSYQMHWVRQAPGQGLEWMGRINPSGGSTWYAQKFQGRVTMTRDTSTSTVYMELSSLRSEDTAVYYCARGKREGGTEYLRHWGQGTLVTVSS VL: EIVLTQSPGTLSLSPGERATLSCRASQSVASSYLAWYQQKPGQAPRLLIYGASNRHTGIPDRFSGSGSGTDFTLTISRLEPEDFAVYYCQQYHGGITFGGGTKVEIK; 3530
31418 (antibody, human IgG4 S228P, kappa, V domains shown) VH: QVQLVQSGAEVKKPGASVKVSCKASGYTFKSYEMHWVRQAPGQGLEWMGRINPSGGSTWYAQKFQGRVTMTRDTSTSTVYMELSSLRSEDTAVYYCARGKREGGTEYLRHWGQGTLVTVSS VL: EIVLTQSPGTLSLSPGERATLSCRASQSVSSSYLAWYQQKPGQAPRLLIYGASSRATGIPDRFSGSGSGTDFTLTISRLEPEDFAVYYCQQYYFYITFGGGTKVEIKR; 3180

With those in mind, consider the next binder.
Recall and state the measured Cell Binding (FOB) for 29872 (antibody, V domains shown, also called anti-CD39 antibody 29872) VH: QVQLVQSGAEVKKPGASVKVSCKASGYTFKSYEMHWVRQAPGQGLEWMGRINPSVGSTWYAQKFQGRVTMTRDTSTSTVYMELSSLRSEDTAVYYCARGKREGGTEYLRHWGQGTLVTVSS VL: EIVLTQSPGTLSLSPGERATLSCRASQSVSSSYLAWYQQKPGQAPRLLIYGASSRATGIPDRFSGSGSGTDFTLTISRLEPEDFAVYYCQQYHSYITFGGGTKVEIK .
4190
